The origin of these recorded values is PubChem BioAssay AID1985.

Overview of recorded pIC50 for various compounds
test system: S. Typhi PhoP-promoter GFP reporter, fluorescence, 4 h; assay: PhoP regulon inhibitor project modified counter assay, GFP fluorescence readout, dose response (AID 1985)
pIC50 is defined as minus the log10 of a concentration measured in mol/L.

>  <COMPOUND>
CN(C)C1C(=O)C(C(N)=O)=C(O)C2(O)C(=O)C3=C(O)c4c(O)cccc4C(C)(O)C3CC12 (configuration not stated)

>  <SYSTEM TESTED>
S. Typhi PhoP-promoter GFP reporter, fluorescence, 4 h

>  <READOUT NAME>
pIC50

>  <NUMERIC READOUT>
5.68

$$$$
>  <COMPOUND>
OC1(c2ccc(Cl)cc2)CCN(Cc2c[nH]c3ccccc23)CC1

>  <SYSTEM TESTED>
S. Typhi PhoP-promoter GFP reporter, fluorescence, 4 h

>  <READOUT NAME>
pIC50

>  <NUMERIC READOUT>
4.00

$$$$
>  <COMPOUND>
Fc1ccc(Nc2nnc(C(F)(F)F)s2)cc1Cl

>  <SYSTEM TESTED>
S. Typhi PhoP-promoter GFP reporter, fluorescence, 4 h

>  <READOUT NAME>
pIC50

>  <NUMERIC READOUT>
4.42

$$$$
>  <COMPOUND>
Oc1c(CN2CCCCC2)cc(Br)c2cccnc12

>  <SYSTEM TESTED>
S. Typhi PhoP-promoter GFP reporter, fluorescence, 4 h

>  <READOUT NAME>
pIC50

>  <NUMERIC READOUT>
4.70

$$$$
>  <COMPOUND>
O=[N+]([O-])/C=C/c1cc2ccccc2[nH]1

>  <SYSTEM TESTED>
S. Typhi PhoP-promoter GFP reporter, fluorescence, 4 h

>  <READOUT NAME>
pIC50

>  <NUMERIC READOUT>
4.19

$$$$

What pIC50 appears in the records for this compound with S. Typhi PhoP-promoter GFP reporter, fluorescence, 4 h? CC(=O)NC(c1cccc([N+](=O)[O-])c1)c1ccc2cccnc2c1O (configuration not stated)
4.01

What pIC50 appears in the records for this compound with S. Typhi PhoP-promoter GFP reporter, fluorescence, 4 h? [O-][n+]1c2c(c3c4non(O)c4ccc31)CCCC2
3.89

What pIC50 appears in the records for this compound with S. Typhi PhoP-promoter GFP reporter, fluorescence, 4 h? O=C(N/N=C/c1cc(Br)cc(Br)c1O)c1ccncc1
4.46

* * *

system: S. Typhi PhoP-promoter GFP reporter, fluorescence, 4 h; assay: PhoP regulon inhibitor project modified counter assay, GFP fluorescence readout, dose response (AID 1985)
pIC50: −log10 of the molar value.
Overview of recorded pIC50 for various compounds

In the examples that follow, each entry is paired with its recorded pIC50.
>  <COMPOUND>
CCCCCCCCCCCCCCCC[n+]1cccc(C(=O)N(CC)CC)c1

>  <SYSTEM TESTED>
S. Typhi PhoP-promoter GFP reporter, fluorescence, 4 h

>  <pIC50>
4.70

$$$$
>  <COMPOUND>
Clc1c(OCCCn2ccnc2)ccc2ccccc12

>  <SYSTEM TESTED>
S. Typhi PhoP-promoter GFP reporter, fluorescence, 4 h

>  <pIC50>
3.83

$$$$
>  <COMPOUND>
CSc1ccc2c(c1)C(N1CCN(C)CC1)Cc1ccc(F)cc1S2 (stereo unspecified)

>  <SYSTEM TESTED>
S. Typhi PhoP-promoter GFP reporter, fluorescence, 4 h

>  <pIC50>
4.29

$$$$

Which pIC50 is reported for this compound? Cc1cc(C)n2nc(S(=O)(=O)Nc3c(Cl)cccc3Cl)nc2n1
4.96

* * *

tested on: S. Typhi PhoP-promoter GFP reporter, fluorescence, 4 h; test: PhoP regulon inhibitor project modified counter assay, GFP fluorescence readout, dose response (AID 1985)
Overview of recorded pIC50 for various compounds
pIC50 is defined as minus the log10 of a concentration measured in mol/L.

>  <COMPOUND>
COc1ccc(N2CC(C(=O)N/N=C/c3cc([N+](=O)[O-])ccc3O)CC2=O)cc1 (stereo unspecified)

>  <SYSTEM TESTED>
S. Typhi PhoP-promoter GFP reporter, fluorescence, 4 h

>  <NUMERIC READOUT>
4.09

$$$$
>  <COMPOUND>
NC1=NC[C@@H](Cc2ccc(O)cc2)N1CCc1cc(C(F)(F)F)cc(C(F)(F)F)c1

>  <SYSTEM TESTED>
S. Typhi PhoP-promoter GFP reporter, fluorescence, 4 h

>  <NUMERIC READOUT>
3.98

$$$$
>  <COMPOUND>
COc1ccc(CNCCc2cccc(F)c2)c2ccccc12

>  <SYSTEM TESTED>
S. Typhi PhoP-promoter GFP reporter, fluorescence, 4 h

>  <NUMERIC READOUT>
4.09

$$$$
>  <COMPOUND>
O=[N+]([O-])c1cc(O)c2ncccc2c1

>  <SYSTEM TESTED>
S. Typhi PhoP-promoter GFP reporter, fluorescence, 4 h

>  <NUMERIC READOUT>
4.92

$$$$
>  <COMPOUND>
O=C(CSc1nc2ccccc2[nH]1)Nc1ccc(F)c(F)c1

>  <SYSTEM TESTED>
S. Typhi PhoP-promoter GFP reporter, fluorescence, 4 h

>  <NUMERIC READOUT>
4.33

$$$$

What pIC50 appears in the records for this compound with S. Typhi PhoP-promoter GFP reporter, fluorescence, 4 h? NC1=NC[C@H](Cc2ccc(O)cc2)N1CCCCC1CCCCC1
4.59

What pIC50 appears in the records for this compound with S. Typhi PhoP-promoter GFP reporter, fluorescence, 4 h? N=c1n(CCN2CCCCC2)c2ccccc2n1CC(O)c1ccc(Cl)c(Cl)c1 (stereo unspecified)
4.19

* * *

Overview of recorded IC50 for various molecules
tested on: S. Typhi PhoP-promoter GFP reporter, fluorescence, 4 h; assay: PhoP regulon inhibitor project modified counter assay, GFP fluorescence readout, dose response (AID 1985)

>  <MOLECULE>
O=C(Cc1ccccc1)NNC(=S)NC(=O)c1cccs1

>  <READOUT NAME>
IC50

>  <RESULT>
37.5 µM

$$$$
>  <MOLECULE>
O=C(N/N=C/c1ccccn1)c1ccc(Br)o1

>  <READOUT NAME>
IC50

>  <RESULT>
50.1 µM

$$$$
>  <MOLECULE>
COc1c(N2CCN[C@H](C)C2)c(F)cc2c(=O)c(C(=O)O)cn(C3CC3)c12

>  <READOUT NAME>
IC50

>  <RESULT>
< 0.23 µM

$$$$
>  <MOLECULE>
COc1cccc(/C=N/NC(=O)c2ccoc2C)c1O

>  <READOUT NAME>
IC50

>  <RESULT>
88.1 µM

$$$$
>  <MOLECULE>
Oc1cccc(Nc2nc(NCC3CCCO3)c3ccccc3n2)c1 (stereo unspecified)

>  <READOUT NAME>
IC50

>  <RESULT>
77.3 µM

$$$$

What IC50 appears in the records for this molecule with S. Typhi PhoP-promoter GFP reporter, fluorescence, 4 h? Cc1ccc(NC(=O)c2ccc([N+](=O)[O-])o2)c(C)c1
38.9 µM

What IC50 appears in the records for this molecule with S. Typhi PhoP-promoter GFP reporter, fluorescence, 4 h? O=C1C=CC(=O)N1CCCCCCN1C(=O)C=CC1=O
112 µM

What IC50 appears in the records for this molecule with S. Typhi PhoP-promoter GFP reporter, fluorescence, 4 h? COc1cccc2c(=O)c(C(=O)O)c[nH]c12
106 µM

What IC50 appears in the records for this molecule with S. Typhi PhoP-promoter GFP reporter, fluorescence, 4 h? Cc1ccc(S(=O)(=O)CCC(=O)c2ccc(O)cc2O)cc1
69.1 µM

What IC50 appears in the records for this molecule with S. Typhi PhoP-promoter GFP reporter, fluorescence, 4 h? CCOc1ccc(/C=N/NC(=O)c2[nH]ncc2Br)c(O)c1
65.4 µM

* * *

tested on: S. Typhi PhoP-promoter GFP reporter, fluorescence, 4 h; assay: PhoP regulon inhibitor project modified counter assay, GFP fluorescence readout, dose response (AID 1985)
Overview of recorded pIC50 for various compounds
pIC50 is defined as minus the log10 of a concentration measured in mol/L.

>  <MOL>
COc1cc(/C=C2/C(=O)NN(c3ccc(F)cc3)C2=O)cc([N+](=O)[O-])c1O

>  <SYSTEM TESTED>
S. Typhi PhoP-promoter GFP reporter, fluorescence, 4 h

>  <pIC50>
4.46

$$$$
>  <MOL>
O=C(N/N=C/c1ccc([N+](=O)[O-])o1)c1ccc(O)cc1

>  <SYSTEM TESTED>
S. Typhi PhoP-promoter GFP reporter, fluorescence, 4 h

>  <pIC50>
4.74

$$$$

Which pIC50 is reported for this compound? O=C(N/N=C/c1ccc([N+](=O)[O-])s1)c1ccccc1Br
4.56

Which pIC50 is reported for this compound? O=c1c(O)cccc2cc(O)c(O)c(O)c12
4.76

Which pIC50 is reported for this compound? Cc1ccc(-n2c(-c3ccc(Br)cc3)c[n+]3c2CCc2ccc4cccnc4c2-3)cc1
4.01

Which pIC50 is reported for this compound? O=C(CSc1nc2ccccc2s1)N/N=C/c1cc([N+](=O)[O-])ccc1O
4.36
